Where these numbers come from: patent US20200239573A1

# Tgt: T1, recombinant human PD-1 Fc chimera (human, UniProt Q15116 25-167)
# T1 construct: Bought protein; also called human PD-1-huFc; huPD-1-Fc; not shown: human Fc
# Protocol notes: HTRF inhibition; strep-tagged PD-L1 vs PD-1-Fc
pIC50: −log10 of the molar value.
# label = Satisfied if pIC50 >= 8 else Not satisfied

# Binder, Assigned class
rows = [
    ("Humabody® 1.8 (VHH, human VH single domain antibody) VHH: EVQLVESGGGLVKPGGSLRLSCAASGFTFSDYTMTWMRQAPGKGLEWVSYISTGGSIKYYTDSVKGRFTISRDNAKNSLYLQMNSLRAGDTAVYYCAREAPLRLGESPHDAFDIWGQGTMVTVSS", "Not satisfied"),
    ("Humabody® 1.1 (VHH, human VH single domain antibody; also called VH single domain antibody 1.1; clone 1.1) VHH: QVQLVESGGGLVKPGGSLRLSCAASGFTFSDYTMTWMRQAPGKGLEWVSYISTGGTIKYYTDSVKGRFTISRDNAKNSLYLQMNSLRADDTAVYYCAREAPLRLGESPHDAFDIWGQGTMVTVSS", "Satisfied"),
    ("Humabody® 1.12 (VHH, human VH single domain antibody) VHH: EVQLLESGGGVVKPGGSLRLSCAASGFTFSDYYMGWIRQAPGKGLEWISYISSSGSTIYYADSVKGRFTISRDNAKNSLYLQMNSLRAEDTAVYYCAREAPLRLGESPHDAFDIWGQGTMVTVSS", "Satisfied"),
    ("Humabody® 1.9 (VHH, human VH single domain antibody) VHH: QVQLVESGGGLVKPGGSLRLSCAASGFTFGDYTMTWMRQAPGKGLEWVSYISTGGTIKYYTDSVKGRFTISRDNAKNSLYLQMDSLRADDTAVYYCAREAPLRLGESPHDAFDIWGQGTMVTVSS", "Satisfied"),
    ("Humabody® 1.3 (VHH, human VH single domain antibody) VHH: QVQLVESGGGLVKPGGSLRLSCAASGFTFSDYTMTWMRQAPGKGLEWVSYISTGGSIKYYTDSVKGRFTISRDNAKNSLYLQMNSLRADDTAVYYCAREAPLRLGESPHDAFDIWGQGTMVTVSS", "Satisfied"),
]

Pending binder:
Query :: Has Humabody® 1.15 (VHH, human VH single domain antibody) VHH: QVQLVESGGGLVKPGGSLRLSCAASGFTFSDNSMSWIRQAPGKGLEWVSYISSSGSTIYYADSVKGRFTISRDNAKNSLYLQMNTLRAEDTAVYYCAKEAPLRLGESPHDAFDIWGQGTMVTVSS a recorded pIC50 greater than or equal to 8?
Result :: Satisfied
